Please respond with reported survival for every item in the list.
# Tested on: Wild type
# Assay: S. aureus survival, RN4220 and DeltatarO strains – OD600, teichoic acid synthesis inhibitors, primary screen (AID 463173)
# Study conditions: S. aureus RN4220 wild type/DeltatarO growth, OD600, 18 h, stronger effect = lower value, screened at 18.75 µg/mL (by protocol)
About 1,700 (3.3%) of roughly 52,000 compounds were called active. Many of the other results were omitted from the sample, so actives are more common in it than they were.
Write it as a number; the unit % goes unstated.

# query: survival of entry "CC(=O)c1cccc(NC(=O)CSc2nc3ccccc3nc2Cc2ccc(F)cc2)c1"
73

// repeat for CC1=C(C(=O)Nc2ccc(C)cc2C)C(c2cccs2)n2nc(SCc3cccc(C)c3)nc2N1 (stereo not given) and report
126

Then CCC(Sc1nc(-c2ccccc2F)nc2c1Cc1c(CO)cnc(C)c1O2)C(=O)Nc1cc(C)ccc1C (stereo not given) ?
87

Then "CCOc1ccccc1-c1nc(=S)[nH][nH]1" ?
110

Next: COc1cc(C2NC(=O)c3c(sc4c3CCN(C)C4)N2)ccc1OC(=O)c1ccccc1 (stereo not given)
80

Cited source for all entries: PubChem BioAssay AID463173
